# Study Target: P2RY2 (Homo sapiens)
# Construct: purchased Promega (in-house HiBiT-GPCR construct library, NanoBRET)
# Sequence (P41231 whole entry): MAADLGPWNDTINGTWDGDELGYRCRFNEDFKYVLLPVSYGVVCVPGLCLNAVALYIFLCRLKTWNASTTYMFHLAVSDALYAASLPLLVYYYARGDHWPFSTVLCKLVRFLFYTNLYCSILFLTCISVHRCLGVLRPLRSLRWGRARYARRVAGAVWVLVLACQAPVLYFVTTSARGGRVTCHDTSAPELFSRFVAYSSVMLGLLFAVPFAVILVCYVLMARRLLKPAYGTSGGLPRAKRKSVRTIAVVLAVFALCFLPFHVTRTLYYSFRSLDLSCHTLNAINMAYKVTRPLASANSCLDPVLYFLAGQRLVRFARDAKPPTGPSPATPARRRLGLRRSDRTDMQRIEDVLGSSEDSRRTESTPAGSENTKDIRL
# Method Description: NanoBRET screen HiBiT-P2RY2 in HEK293
# Type: binding
# Condition Context: P2RY2; tracer 1μM
Item-by-item account of NanoBRET Fold Response
Give the figure by itself; no unit, no explanation.

>>> value_measured("CC(C)N(CC[C@H](c1ccccc1)c1cc(CCNC(=O)CCOCCOCCOCCOCCNC(=O)CCc2ccc3n2[B-](F)(F)[N+]2=C(c4ccc[nH]4)C=CC2=C3)ccc1O)C(C)C")
1.07
>>> value_measured("COc1ccccc1N1CCN(CCCCN2C(=O)c3ccc(CNC(=O)CCOCCNC(=O)c4ccc(CNC(=O)CCc5ccc6n5[B-](F)(F)[N+]5=C(c7ccc[nH]7)C=CC5=C6)cc4)cc3C2=O)CC1")
1.01

Prompt: Recorded NanoBRET Fold Response for `O=C(CCc1ccc2n1[B-](F)(F)[N+]1=C(c3ccc[nH]3)C=CC1=C2)NCCOCCOCCNC(=O)OCCOCCN1CCN(C2=Nc3ccccc3Sc3ccccc32)CC1` , please?
Response: 0.95

Prompt: Recorded NanoBRET Fold Response for `CCCn1c(=O)c2[nH]c(-c3ccc(OCC(=O)NCCNC(=O)CCOCCNC(=O)c4ccc(CNC(=O)CCc5ccc6n5[B-](F)(F)[N+]5=C(c7ccc[nH]7)C=CC5=C6)cc4)cc3)nc2n(CCC)c1=O` , please?
Response: 0.95

Prompt: Recorded NanoBRET Fold Response for O=C(CCc1ccc2n1[B-](F)(F)[N+]1=C(c3ccc[nH]3)C=CC1=C2)NCc1ccc(C(=O)NCCOCCC(=O)N[C@@H]2CC[C@@]3(O)[C@H]4Cc5ccc(O)c6c5[C@@]3(CCN4CC3CC3)[C@H]2O6)cc1 [Naltrexone-3-NB590] , please?
Response: 1.10

----------
Item-by-item account of NanoBRET Fold Response
# Study Target: NPY2R (Homo sapiens)
# Construct: purchased Promega (in-house HiBiT-GPCR construct library, NanoBRET)
# Sequence (P49146 whole entry): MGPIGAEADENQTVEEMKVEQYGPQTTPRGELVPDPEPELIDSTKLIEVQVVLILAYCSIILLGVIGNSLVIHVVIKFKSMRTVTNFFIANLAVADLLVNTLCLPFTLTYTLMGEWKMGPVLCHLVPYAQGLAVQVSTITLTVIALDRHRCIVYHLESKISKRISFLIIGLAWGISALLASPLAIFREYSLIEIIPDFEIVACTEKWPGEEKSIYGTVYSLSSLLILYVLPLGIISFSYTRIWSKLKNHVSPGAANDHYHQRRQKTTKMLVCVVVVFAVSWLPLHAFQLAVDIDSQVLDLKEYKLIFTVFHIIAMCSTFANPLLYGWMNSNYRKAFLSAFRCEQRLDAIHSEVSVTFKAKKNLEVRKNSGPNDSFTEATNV
# Method Description: NanoBRET screen HiBiT-NPY2R in HEK293
# Format: binding
# Condition Context: NPY2R; tracer 1μM
Give the figure by itself; no unit, no explanation.

Prompt: Find NanoBRET Fold Response (NPY2R (Homo sapiens)) for the entry O=C(CCc1ccc2n1[B-](F)(F)[N+]1=C(c3ccc[nH]3)C=CC1=C2)NCc1ccc(C(=O)NCCOCCC(=O)N[C@@H]2CC[C@@]3(O)[C@H]4Cc5ccc(O)c6c5[C@@]3(CCN4CC3CC3)[C@H]2O6)cc1 [Naltrexone-3-NB590]
Response: 0.96

Prompt: Find NanoBRET Fold Response (NPY2R (Homo sapiens)) for the entry `COc1ccccc1N1CCN(CCCCN2C(=O)c3ccc(CNC(=O)CCOCCNC(=O)c4ccc(CNC(=O)CCc5ccc6n5[B-](F)(F)[N+]5=C(c7ccc[nH]7)C=CC5=C6)cc4)cc3C2=O)CC1`
Response: 1.07

Prompt: Find NanoBRET Fold Response (NPY2R (Homo sapiens)) for the entry `Cc1cc2c(s1)Nc1ccccc1N=C2N1CCN(CCCNC(=O)CCOCCOCCOCCOCCNC(=O)CCc2ccc3n2[B-](F)(F)[N+]2=C(c4ccc[nH]4)C=CC2=C3)CC1`
Response: 0.99

----------
# Study Target: P2RY8 (Homo sapiens)
# Construct: purchased Promega (in-house HiBiT-GPCR construct library, NanoBRET)
# Sequence (Q86VZ1 whole entry): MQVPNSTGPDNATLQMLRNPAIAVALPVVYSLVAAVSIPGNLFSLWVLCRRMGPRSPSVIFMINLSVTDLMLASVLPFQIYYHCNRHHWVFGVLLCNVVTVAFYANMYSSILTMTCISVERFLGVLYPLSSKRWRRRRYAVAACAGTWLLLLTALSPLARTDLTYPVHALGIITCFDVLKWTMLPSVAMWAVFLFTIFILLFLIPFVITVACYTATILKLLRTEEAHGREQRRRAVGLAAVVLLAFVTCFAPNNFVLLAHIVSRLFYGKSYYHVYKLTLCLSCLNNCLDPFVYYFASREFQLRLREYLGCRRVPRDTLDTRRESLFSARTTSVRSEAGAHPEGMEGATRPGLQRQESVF
# Method Description: NanoBRET screen HiBiT-P2RY8 in HEK293
# Format: binding
# Condition Context: P2RY8; tracer 0.1μM
Item-by-item account of NanoBRET Fold Response
Give the figure by itself; no unit, no explanation.

Example entries and their recorded answers appear below.
>>> value_measured("CC(C)N(CC[C@H](c1ccccc1)c1cc(CCNC(=O)c2ccc(CNC(=O)CCc3ccc4n3[B-](F)(F)[N+]3=C(c5ccc[nH]5)C=CC3=C4)cc2)ccc1O)C(C)C")
0.96
>>> value_measured("Cc1nc2n(c(=O)c1CCN1CCC(c3noc4cc(F)ccc34)CC1)CCCC2OC(=O)NCCOCCOCCOCCOCCNC(=O)CCc1ccc2n1[B-](F)(F)[N+]1=C(c3ccc[nH]3)C=CC1=C2 (stereo not shown)")
1.06
>>> value_measured("COc1ccccc1N1CCN(CCCCN2C(=O)c3ccc(CNC(=O)CCOCCOCCOCCOCCNC(=O)CCc4ccc5n4[B-](F)(F)[N+]4=C(c6ccc[nH]6)C=CC4=C5)cc3C2=O)CC1")
0.99
>>> value_measured("CC(C)N(CC[C@H](c1ccccc1)c1cc(CCNC(=O)CCOCCOCCOCCOCCNC(=O)CCc2ccc3n2[B-](F)(F)[N+]2=C(c4ccc[nH]4)C=CC2=C3)ccc1O)C(C)C")
1.06
>>> value_measured("N#CN=C(NCCCOc1cccc(CN2CCCCC2)c1)NCCNC(=O)CCOCCOCCOCCOCCNC(=O)CCc1ccc2n1[B-](F)(F)[N+]1=C(c3ccc[nH]3)C=CC1=C2")
1.06
>>> value_measured("O=C(CCc1ccc2n1[B-](F)(F)[N+]1=C(c3ccc[nH]3)C=CC1=C2)NCc1ccc(C(=O)NCCOCCC(=O)N[C@@H]2CC[C@@]3(O)[C@H]4Cc5ccc(O)c6c5[C@@]3(CCN4CC3CC3)[C@H]2O6)cc1 [Naltrexone-3-NB590]")
0.86
>>> value_measured("O=C(CCc1ccc2n1[B-](F)(F)[N+]1=C(c3ccc[nH]3)C=CC1=C2)NCCOCCOCCNC(=O)OCCOCCN1CCN(C2=Nc3ccccc3Sc3ccccc32)CC1")
0.94
>>> value_measured("O=C(CCOCCOCCOCCOCCNC(=O)CCc1ccc2n1[B-](F)(F)[N+]1=C(c3ccc[nH]3)C=CC1=C2)NCCCN1CCN(C2=Nc3ccccc3Oc3ccc(Cl)cc32)CC1")
0.95
>>> value_measured("COc1ccccc1N1CCN(CCCCN2C(=O)c3ccc(CNC(=O)CCOCCNC(=O)c4ccc(CNC(=O)CCc5ccc6n5[B-](F)(F)[N+]5=C(c7ccc[nH]7)C=CC5=C6)cc4)cc3C2=O)CC1")
1.21

Query compound follows.
Prompt: Find NanoBRET Fold Response (P2RY8 (Homo sapiens)) for the entry `CCCn1c(=O)c2[nH]c(-c3ccc(OCC(=O)NCCNC(=O)CCOCCNC(=O)c4ccc(CNC(=O)CCc5ccc6n5[B-](F)(F)[N+]5=C(c7ccc[nH]7)C=CC5=C6)cc4)cc3)nc2n(CCC)c1=O`
Response: 1.30

Hello, the source for this data is paper PMC8151276, in case you need it.
